Value source: patent US10125098B2

Would you kindly list pIC50 for each of these compounds?
Target: human NaV1.7 (Homo sapiens)
Construct: permanently transfected with an expression vector containing the full-length cDNA coding for the desired human sodium channel α-subunit
Assay: Patch voltage clamp electrophysiology assay (EP), NaV1.7
Conditions: HEK-293 cells stably expressing NaV1.7 with β1 subunit; whole-cell patch clamp, membrane potential −60 mV (inactivated state)
Experimental: The following patch voltage clamp electrophysiology studies were performed on representative compounds of the invention using human embryonic kidney cells (HEK), permanently transfected with an expression vector containing the full-length cDNA coding for the desired human sodium channel α-subunit, grown in culture media containing 10% FBS, 1% PSG, and 0.5 mg/mL G418 at 37° C. with 5% CO2. […]
In plain terms, pIC50 is the concentration in mol/L turned into minus its base-10 logarithm.

Look up pIC50: CC(C)COc1ncc(Oc2cc(F)c(C(=O)N[C@H](C(=O)O)C(C)C)cc2Cl)cc1Cl
5.02

Look up pIC50: O=C(NO)[C@@H]1C[C@@H](F)CN1C(=O)c1cc(C2CC2)c(OCC23CC4CC(CC(C4)C2)C3)cc1F
5.44

Look up pIC50: C[C@H]1[C@H](F)CN(C(=O)c2cc(C3CC3)c(OCC34CC5CC(CC(C5)C3)C4)cc2F)[C@@H]1C(=O)O [Example 210b]
6.09

Look up pIC50: C[C@@H](c1cc(Cl)cc(Cl)c1)N1CCC(COc2cc(F)c(C(=O)N3CSC[C@H]3C(=O)O)cc2C2CC2)CC1
6.00

Look up pIC50: O=C(O)[C@@H]1C[C@H]2C[C@H]2N1C(=O)c1cc(C2CC2)c(OCC23CC4CC(CC(C4)C2)C3)cc1F
5.72

Look up pIC50: O=C(O)[C@@H]1CCCN1C(=O)c1cc(C2CC2)c(OCC23CCCCC2C3)cc1F (stereo partly shown)
6.28

Look up pIC50: O=C(O)[C@@H]1C[C@@H](F)CN1C(=O)c1cc(C2CC2)c(OCC2CCN(Cc3cc(F)c(Cl)cc3Cl)CC2)cc1F
6.66

====

Would you kindly list pIC50 for each of these compounds?
Molecular target: hNav1.7 (Homo sapiens)
Sequence (Q15858 1-1977 isoform Q15858-3): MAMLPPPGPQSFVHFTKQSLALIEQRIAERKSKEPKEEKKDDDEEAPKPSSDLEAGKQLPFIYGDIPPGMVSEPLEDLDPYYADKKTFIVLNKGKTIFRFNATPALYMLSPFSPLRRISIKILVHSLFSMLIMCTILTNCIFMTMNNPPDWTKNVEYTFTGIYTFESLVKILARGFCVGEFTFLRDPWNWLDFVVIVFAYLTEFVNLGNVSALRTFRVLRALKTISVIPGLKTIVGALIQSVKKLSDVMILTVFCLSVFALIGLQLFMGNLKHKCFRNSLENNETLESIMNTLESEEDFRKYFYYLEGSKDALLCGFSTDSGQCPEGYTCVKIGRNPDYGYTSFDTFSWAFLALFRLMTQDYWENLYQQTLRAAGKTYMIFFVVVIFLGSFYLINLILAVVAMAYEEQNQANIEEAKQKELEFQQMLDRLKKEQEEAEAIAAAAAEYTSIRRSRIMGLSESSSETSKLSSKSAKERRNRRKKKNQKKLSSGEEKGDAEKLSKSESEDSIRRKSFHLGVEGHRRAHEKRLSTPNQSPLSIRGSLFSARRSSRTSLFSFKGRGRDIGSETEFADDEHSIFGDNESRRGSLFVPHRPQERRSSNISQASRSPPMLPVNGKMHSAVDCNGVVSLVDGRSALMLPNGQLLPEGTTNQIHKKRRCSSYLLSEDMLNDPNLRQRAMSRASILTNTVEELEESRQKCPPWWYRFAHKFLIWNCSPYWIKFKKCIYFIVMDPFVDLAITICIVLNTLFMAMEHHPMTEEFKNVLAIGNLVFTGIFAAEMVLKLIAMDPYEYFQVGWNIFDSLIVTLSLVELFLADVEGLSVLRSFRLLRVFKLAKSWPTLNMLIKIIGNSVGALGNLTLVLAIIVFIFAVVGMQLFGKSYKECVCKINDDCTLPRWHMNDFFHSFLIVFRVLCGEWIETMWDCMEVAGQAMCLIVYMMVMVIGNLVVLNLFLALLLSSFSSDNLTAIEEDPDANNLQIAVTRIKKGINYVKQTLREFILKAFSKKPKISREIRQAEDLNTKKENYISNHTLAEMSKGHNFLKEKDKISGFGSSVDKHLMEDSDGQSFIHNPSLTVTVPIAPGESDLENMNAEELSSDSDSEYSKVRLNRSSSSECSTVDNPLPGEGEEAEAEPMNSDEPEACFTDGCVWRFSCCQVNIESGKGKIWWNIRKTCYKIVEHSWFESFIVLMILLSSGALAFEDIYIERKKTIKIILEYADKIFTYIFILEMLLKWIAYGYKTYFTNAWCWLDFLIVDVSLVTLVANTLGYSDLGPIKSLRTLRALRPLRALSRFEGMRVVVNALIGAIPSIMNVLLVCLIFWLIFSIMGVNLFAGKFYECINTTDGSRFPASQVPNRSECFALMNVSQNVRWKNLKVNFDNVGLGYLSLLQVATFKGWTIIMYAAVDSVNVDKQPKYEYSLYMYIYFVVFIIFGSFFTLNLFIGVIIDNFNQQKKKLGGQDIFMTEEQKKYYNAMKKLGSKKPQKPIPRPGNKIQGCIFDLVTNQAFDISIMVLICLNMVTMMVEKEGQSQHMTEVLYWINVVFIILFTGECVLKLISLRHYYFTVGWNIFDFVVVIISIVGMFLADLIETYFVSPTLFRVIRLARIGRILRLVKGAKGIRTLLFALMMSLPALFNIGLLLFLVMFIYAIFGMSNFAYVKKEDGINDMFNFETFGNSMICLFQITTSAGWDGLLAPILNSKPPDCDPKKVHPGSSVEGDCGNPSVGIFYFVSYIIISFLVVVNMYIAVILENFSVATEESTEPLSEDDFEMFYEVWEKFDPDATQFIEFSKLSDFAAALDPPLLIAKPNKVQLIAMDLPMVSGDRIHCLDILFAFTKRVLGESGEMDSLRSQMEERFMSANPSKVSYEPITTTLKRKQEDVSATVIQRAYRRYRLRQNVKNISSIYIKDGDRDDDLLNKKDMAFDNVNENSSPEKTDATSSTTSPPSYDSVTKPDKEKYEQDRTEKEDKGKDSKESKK
Sequence (Q07699 19-218 partner): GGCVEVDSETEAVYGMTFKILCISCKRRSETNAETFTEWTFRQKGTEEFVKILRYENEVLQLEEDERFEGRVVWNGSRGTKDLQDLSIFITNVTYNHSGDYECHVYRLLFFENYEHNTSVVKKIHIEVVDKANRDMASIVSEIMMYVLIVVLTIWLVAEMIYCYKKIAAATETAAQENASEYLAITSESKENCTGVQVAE
Assay: Tritiated compound binding (LBA) to membranes from cells expressing hNav1.7 and the β1 subunit, competitive binding
Settings: competitive binding vs 100 pM [3H]compound, 18 h, room temperature, membranes with hNav1.7 and β1 subunit
In plain terms, pIC50 is the concentration in mol/L turned into minus its base-10 logarithm.

Look up pIC50: CC1(COc2cc(F)c(C(=O)N[C@H](C(=O)O)C3CC3)cc2C2CC2)CN([C@H](c2ccccc2)c2cc(Cl)cc(Cl)c2)C1 (single isomer, unassigned)
8.12

Look up pIC50: O=C(O)[C@@H]1[C@H](O)CCN1C(=O)c1cc(C2CC2)c(OCC23CC4CC(CC(C4)C2)C3)cc1F
6.80

Look up pIC50: O=C(N[C@H](C(=O)O)C1CC1)c1cc(C2CC2)c(OCC23CC4CC(CC(C4)C2)C3)cc1F
7.62

====

Biological target: NaV1.5 (Homo sapiens, UniProt Q14524)
Construct: permanently transfected with an expression vector containing the full-length cDNA coding for the desired human sodium channel α-subunit; expressed in transfected cells; host or cells: HEK-293
Sequence (Q14524 whole entry): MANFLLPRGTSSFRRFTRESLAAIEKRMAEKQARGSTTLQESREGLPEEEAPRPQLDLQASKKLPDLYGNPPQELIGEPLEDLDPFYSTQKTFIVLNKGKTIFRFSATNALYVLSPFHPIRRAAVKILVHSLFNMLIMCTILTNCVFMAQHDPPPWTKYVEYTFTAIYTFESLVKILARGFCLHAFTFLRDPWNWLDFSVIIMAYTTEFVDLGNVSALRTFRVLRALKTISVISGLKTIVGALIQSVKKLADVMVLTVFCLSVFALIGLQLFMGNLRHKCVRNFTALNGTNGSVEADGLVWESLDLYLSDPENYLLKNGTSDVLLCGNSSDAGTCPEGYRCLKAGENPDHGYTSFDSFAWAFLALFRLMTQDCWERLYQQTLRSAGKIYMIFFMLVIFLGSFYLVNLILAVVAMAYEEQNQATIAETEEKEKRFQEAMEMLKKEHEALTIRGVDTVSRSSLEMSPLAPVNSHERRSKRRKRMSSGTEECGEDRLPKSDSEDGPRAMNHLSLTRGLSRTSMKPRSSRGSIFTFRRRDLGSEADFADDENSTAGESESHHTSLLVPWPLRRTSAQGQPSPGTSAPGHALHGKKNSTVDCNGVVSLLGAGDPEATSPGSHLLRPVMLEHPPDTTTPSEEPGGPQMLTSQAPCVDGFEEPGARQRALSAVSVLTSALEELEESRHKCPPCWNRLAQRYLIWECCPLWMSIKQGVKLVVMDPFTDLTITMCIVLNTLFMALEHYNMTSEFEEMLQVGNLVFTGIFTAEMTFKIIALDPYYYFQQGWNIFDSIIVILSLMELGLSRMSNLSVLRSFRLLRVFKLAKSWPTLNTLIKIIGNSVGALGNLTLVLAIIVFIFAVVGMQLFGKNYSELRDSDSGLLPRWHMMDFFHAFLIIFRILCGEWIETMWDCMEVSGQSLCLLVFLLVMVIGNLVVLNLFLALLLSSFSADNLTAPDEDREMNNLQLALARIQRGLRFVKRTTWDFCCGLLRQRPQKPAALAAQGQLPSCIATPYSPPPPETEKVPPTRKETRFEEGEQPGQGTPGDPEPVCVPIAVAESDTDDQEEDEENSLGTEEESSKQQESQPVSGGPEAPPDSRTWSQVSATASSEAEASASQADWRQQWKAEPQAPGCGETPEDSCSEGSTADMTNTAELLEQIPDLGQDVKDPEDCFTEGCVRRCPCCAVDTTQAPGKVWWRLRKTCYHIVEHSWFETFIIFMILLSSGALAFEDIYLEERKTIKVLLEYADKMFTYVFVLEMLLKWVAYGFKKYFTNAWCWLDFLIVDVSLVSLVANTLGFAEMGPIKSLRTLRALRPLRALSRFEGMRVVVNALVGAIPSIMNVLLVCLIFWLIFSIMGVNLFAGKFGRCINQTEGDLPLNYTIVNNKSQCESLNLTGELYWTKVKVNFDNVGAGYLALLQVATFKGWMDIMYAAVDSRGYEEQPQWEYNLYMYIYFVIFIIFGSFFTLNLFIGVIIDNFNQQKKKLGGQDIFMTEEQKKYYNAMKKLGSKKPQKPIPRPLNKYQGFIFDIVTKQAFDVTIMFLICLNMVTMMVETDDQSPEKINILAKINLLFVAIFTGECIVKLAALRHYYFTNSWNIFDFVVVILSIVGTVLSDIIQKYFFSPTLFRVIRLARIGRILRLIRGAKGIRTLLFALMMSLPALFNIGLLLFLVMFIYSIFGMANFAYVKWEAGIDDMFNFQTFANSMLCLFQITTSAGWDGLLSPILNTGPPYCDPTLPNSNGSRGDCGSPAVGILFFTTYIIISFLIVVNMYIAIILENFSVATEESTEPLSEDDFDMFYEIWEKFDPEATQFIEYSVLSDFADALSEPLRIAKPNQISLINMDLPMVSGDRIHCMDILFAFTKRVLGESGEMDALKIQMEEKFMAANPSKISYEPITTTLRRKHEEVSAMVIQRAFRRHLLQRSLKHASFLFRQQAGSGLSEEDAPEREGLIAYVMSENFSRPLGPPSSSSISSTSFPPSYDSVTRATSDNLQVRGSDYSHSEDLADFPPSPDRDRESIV
Experiment: Patch voltage clamp electrophysiology assay (EP), NaV1.5
Type: cell-based
Conditions: HEK-293 cells stably expressing NaV1.5 with β1 subunit; whole-cell patch clamp, membrane potential −60 mV (inactivated state); read-out: Nav1.5
Where a name gives a salt, the structure may show the parent alone.
Assign labels as follows, please: Fulfilled for IC50 below 20 µM; Not fulfilled for IC50 equal to or exceeding 20 µM.

Regarding C[C@H]1C[C@@H](C(=O)O)N(C(=O)c2cc(C3CC3)c(OCC34CC5CC(CC(C5)C3)C4)cc2F)C1 , kindly confirm whether its IC50 is beneath 20 µM.
Fulfilled

Regarding CC(C)COc1ncc(Oc2cc(F)c(C(=O)N[C@H](C(=O)O)C(C)C)cc2Cl)cc1Cl , kindly confirm whether its IC50 is beneath 20 µM.
Fulfilled

Regarding O=C(O)[C@@H]1CCCN1C(=O)c1cc(C2CCC2)c(OCC23CC4CC(CC(C4)C2)C3)cc1F [Example 194, trifluoroacetate] , kindly confirm whether its IC50 is beneath 20 µM.
Fulfilled

Regarding C[C@@H]1[C@H](F)CN(C(=O)c2cc(C3CC3)c(OCC34CC5CC(CC(C5)C3)C4)cc2F)[C@@H]1C(=O)O [Example 210a] , kindly confirm whether its IC50 is beneath 20 µM.
Not fulfilled

Regarding CC1(COc2cc(F)c(C(=O)N[C@H](C(=O)O)C3CC3)cc2C2CC2)CN([C@@H](c2ccccc2)c2cc(Cl)cc(Cl)c2)C1 (single isomer, unassigned) , kindly confirm whether its IC50 is beneath 20 µM.
Fulfilled

Regarding C[C@@]1(C(=O)O)CCCN1C(=O)c1cc(C2CC2)c(OCC23CC4CC(CC(C4)C2)C3)cc1F , kindly confirm whether its IC50 is beneath 20 µM.
Fulfilled

====

Would you kindly list IC50 for each of these molecules?
Molecular target: human NaV1.7 (Homo sapiens, UniProt Q15858)
Construct: permanently transfected with an expression vector containing the full-length cDNA coding for the desired human sodium channel α-subunit
Sequence (Q15858 1-1977 isoform Q15858-3): as the sequence (Q15858 1-1977 isoform Q15858-3) above
Sequence (Q07699 19-218 partner): as the sequence (Q07699 19-218 partner) above
Experiment: Patch voltage clamp electrophysiology assay (EP), NaV1.7
Details: HEK-293 cells stably expressing NaV1.7 with β1 subunit; whole-cell patch clamp, membrane potential −60 mV (inactivated state)
Experimental: The following patch voltage clamp electrophysiology studies were performed on representative compounds of the invention using human embryonic kidney cells (HEK), permanently transfected with an expression vector containing the full-length cDNA coding for the desired human sodium channel α-subunit, grown in culture media containing 10% FBS, 1% PSG, and 0.5 mg/mL G418 at 37° C. with 5% CO2. […]
Give just the numeric value; nM need not be written.

Requested read-out IC50, target or system human NaV1.7 (Homo sapiens, UniProt Q15858), entry C[C@H](c1cc(Cl)cc(Cl)c1)N1CCC(C)(COc2cc(F)c(C(=O)N3C[C@H](F)C[C@H]3C(=O)O)cc2C2CC2)CC1 (single isomer, unassigned) [Example 132b]
430

Requested read-out IC50, target or system human NaV1.7 (Homo sapiens, UniProt Q15858), entry O=C(O)[C@@H]1C[C@@H](F)CN1C(=O)c1cc(C2CC2)c(OCC2(F)CCN(Cc3ccc(F)c(Cl)c3)CC2)cc1F [Example 128]
710

Requested read-out IC50, target or system human NaV1.7 (Homo sapiens, UniProt Q15858), entry O=C(O)[C@@H]1CC(F)(F)CN1C(=O)c1cc(C2CC2)c(OCC23CC4CC(CC(C4)C2)C3)cc1F [Example 48]
640

====

Would you kindly list pIC50 for each of these compounds?
Target: hNav1.7 (Homo sapiens)
Experiment: Tritiated compound binding (LBA) to membranes from cells expressing hNav1.7 and the β1 subunit, competitive binding
Conditions: competitive binding vs 100 pM [3H]compound, 18 h, room temperature, membranes with hNav1.7 and β1 subunit
Structures can show the parent of a compound that is named as a salt.
In plain terms, pIC50 is the concentration in mol/L turned into minus its base-10 logarithm.

Look up pIC50: O=C(O)[C@@H]1CCCN1C(=O)c1cc(C2CC2)c(CN2CCC(Oc3cc(Cl)cc(OC(F)(F)F)c3)CC2)cc1F [Example 20, trifluoroacetic acid salt]
6.26

Look up pIC50: CC12CC3(C)CC(C)(C1)CC(COc1cc(F)c(C(=O)N4CCC[C@H]4C(=O)O)cc1C1CC1)(C2)C3 [Example 3]
8.05

Look up pIC50: O=C(O)[C@@H]1CCCN1C(=O)c1cc(Cl)c(COc2cnc(OCC(F)(F)C(F)F)c(Cl)c2)cc1F [Example 180]
6.08

Look up pIC50: CC1(O)C[C@@H](C(=O)O)N(C(=O)c2cc(C3CC3)c(OCC34CC5CC(CC(C5)C3)C4)cc2F)C1 (some centres unmarked) [Example 218]
6.64

Look up pIC50: O=C(O)[C@@H]1CCCN1C(=O)c1cc(C2CC2)c(OCC2CCN(C(c3ccccc3)c3cc(Cl)cc(Cl)c3)CC2)cc1F (some centres unmarked) [Example 26, trifluoroacetic acid salt]
7.74

Look up pIC50: CC1(COc2cc(F)c(C(=O)N[C@H](C(=O)O)C3CC3)cc2C2CC2)CN([C@@H](c2ccccc2)c2cc(Cl)cc(Cl)c2)C1 (single isomer, unassigned) [Example 114]
7.70

Look up pIC50: C[C@H]1CCN(C(=O)c2cc(C3CC3)c(OCC3(C)CN([C@H](c4ccccc4)c4cc(Cl)cc(Cl)c4)C3)cc2F)[C@@H]1C(=O)O (single isomer, unassigned) [Example 115]
8.11

Look up pIC50: O=C(O)[C@@H]1CCCN1C(=O)c1cc(C2CC2)c(OCC2CCCCC2)cc1F [Example 13]
6.76

Look up pIC50: C[C@@H]1OCN(C(=O)c2cc(C3CC3)c(OCC34CC5CC(CC(C5)C3)C4)cc2F)[C@H]1C(=O)O [Example 163]
6.92

Look up pIC50: CC1(C)CCCC(COc2cc(F)c(C(=O)N3CCC[C@H]3C(=O)O)cc2C2CC2)C1 (some centres unmarked) [Example 16]
7.40

Look up pIC50: O=C(O)[C@H]1CCCN1C(=O)c1cc(C2CC2)c(OCC23CC4CC(CC(C4)C2)C3)cc1F [Example 2]
6.37

Look up pIC50: CC(c1cc(Cl)cc(Cl)c1)N1CCC(F)(COc2cc(F)c(C(=O)N3C[C@H](F)C[C@H]3C(=O)O)cc2C2CC2)CC1 (some centres unmarked) [Example 129]
7.66

Look up pIC50: O=C(O)[C@@H]1CCCN1C(=O)c1cc(C2CC2)c(CN2CCO[C@H](Cc3cc(Cl)cc(Cl)c3)C2)cc1F [Example 5, trifluoroacetic acid salt]
6.33

Look up pIC50: O=C(O)[C@@H]1CCCN1C(=O)c1cc(Cl)c(Oc2ccc(OC(F)(F)F)c(Cl)c2)cc1F [Example 37]
5.28

Look up pIC50: C[C@H]1OCN(C(=O)c2cc(C3CC3)c(OCC3CCN(Cc4c(Cl)cccc4Cl)CC3)cc2F)[C@@H]1C(=O)O [Example 224]
7.85

Look up pIC50: O=C(O)[C@@H]1C[C@H](C(F)(F)F)CN1C(=O)c1cc(C2CC2)c(OCC23CC4CC(CC(C4)C2)C3)cc1F [Example 211]
5.64

Look up pIC50: C[C@]1(COc2cc(F)c(C(=O)N3CCC[C@H]3C(=O)O)cc2C2CC2)CCN(c2cc(C(F)(F)F)c(Cl)cn2)C1 [Example 135]
6.41

Look up pIC50: O=C(O)[C@@H]1C[C@@H](F)CN1C(=O)c1cc(C2CC2)c(OCC2CCN(Cc3cc(C(F)(F)F)ccc3F)CC2)cc1F [Example 103]
7.48

Look up pIC50: C[C@@]1(COc2cc(F)c(C(=O)N3CCC[C@H]3C(=O)O)cc2C2CC2)CCN(Cc2cc(F)cc(Cl)c2)C1 (single isomer, unassigned) [Example 137a]
6.24

Look up pIC50: C[C@H]1OCN(C(=O)c2cc(C3CC3)c(OCC3CCN([C@@H](C)c4cc(Cl)cc(Cl)c4)CC3)cc2F)[C@@H]1C(=O)O [Example 164]
7.60

Look up pIC50: O=C(O)[C@@H]1CC2(CC2)CN1C(=O)c1cc(C2CC2)c(OCC2(F)CCN(Cc3ccc(C(F)(F)F)cc3Cl)CC2)cc1F [Example 124]
6.40

Look up pIC50: CC(c1ccc(Cl)cc1Cl)N1CCC(COc2cc(F)c(C(=O)N3C[C@H](F)C[C@H]3C(=O)O)cc2C2CC2)CC1 (some centres unmarked) [Example 174]
7.59

Look up pIC50: C[C@@H](c1cc(Cl)cc(Cl)c1)N1CCC(COc2cc(F)c(C(=O)N3C[C@H](Cl)C[C@H]3C(=O)O)cc2C2CC2)CC1 [Example 169]
7.04
